- ASSAYED_SYSTEM: T1, human Kv1.1 (huKv1.1) (Homo sapiens, UniProt Q09470)
- T1 construct: expressed in transfected cells; host or cells: Freestyle CHO-S
- T1 sequence (Q09470 whole entry): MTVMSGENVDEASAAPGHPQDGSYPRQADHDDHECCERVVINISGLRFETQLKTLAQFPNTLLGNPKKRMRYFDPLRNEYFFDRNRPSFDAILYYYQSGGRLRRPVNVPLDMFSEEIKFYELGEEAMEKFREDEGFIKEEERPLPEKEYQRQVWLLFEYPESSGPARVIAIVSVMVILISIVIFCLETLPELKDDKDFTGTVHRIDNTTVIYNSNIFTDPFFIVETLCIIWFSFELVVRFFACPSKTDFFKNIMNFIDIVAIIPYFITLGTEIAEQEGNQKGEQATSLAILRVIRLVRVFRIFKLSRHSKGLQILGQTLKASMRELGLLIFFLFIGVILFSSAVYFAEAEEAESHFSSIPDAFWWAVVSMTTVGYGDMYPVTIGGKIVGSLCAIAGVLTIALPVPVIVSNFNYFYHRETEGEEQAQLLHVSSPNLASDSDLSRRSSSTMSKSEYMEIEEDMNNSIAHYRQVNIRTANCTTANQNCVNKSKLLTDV
- ASSAY_PROTOCOL: QPatch automated patch-clamp, CHO-S cells expressing huKv1.1 (Examples 20-21)
- Assay type: cell-based
- CONDITIONS: four-point curves of FIG. 33, Table E20
pIC50: −log10 of the molar value.
READOUT_LABEL: pIC50

>>> quantitative_readout("KB_A12_Odk2: OdK2 in VL CDR2 of KB_A12, IgG (antibody, V domains shown) VH: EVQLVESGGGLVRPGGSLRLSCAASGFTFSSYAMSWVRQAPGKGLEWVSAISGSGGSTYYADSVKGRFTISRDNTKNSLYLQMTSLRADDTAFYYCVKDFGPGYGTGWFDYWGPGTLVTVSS VL: QSVLTQPPSVSEAPRQRVTITCSGSSSNIGNNAVNWYQQLPGKAPKLLIYAAGRGVPTDVKCRGSPQCIQPCKDAGMRFGKCMNGKCHCTPKANSGVSDRFSAAKSGTSASLAINGLRSEDEADYYCAAWDDSLNGYVFGTGTKLTVLG")
5.56
>>> quantitative_readout("KB_A12_ShK: ShK toxin in VL CDR2 of KB_A12, IgG1 (antibody, V domains shown) VH: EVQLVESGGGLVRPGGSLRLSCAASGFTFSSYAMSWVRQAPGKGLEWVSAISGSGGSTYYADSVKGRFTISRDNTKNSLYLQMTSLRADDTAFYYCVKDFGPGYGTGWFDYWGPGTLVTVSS VL: QSVLTQPPSVSEAPRQRVTITCSGSSSNIGNNAVNWYQQLPGKAPKLLIYAAGRRSCIDTIPKSRCTAFQCKHSMKYRLSFCRKTCGTCANSGVSDRFSAAKSGTSASLAINGLRSEDEADYYCAAWDDSLNGYVFGTGTKLTVLG")
7.40
>>> quantitative_readout("KB_A12_KTX: kaliotoxin in VL CDR2 of KB_A12, IgG1 (antibody) VH: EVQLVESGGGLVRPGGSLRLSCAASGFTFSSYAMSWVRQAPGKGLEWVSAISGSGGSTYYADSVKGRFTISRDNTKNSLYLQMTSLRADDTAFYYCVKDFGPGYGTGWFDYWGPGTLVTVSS VL: QSVLTQPPSVSEAPRQRVTITCSGSSSNIGNNAVNWYQQLPGKAPKLLIYAAGRGVEINVKCSGSPQCLKPCKDAGMRFGKCMNRKCHCTPKANSGVSDRFSAAKSGTSASLAINGLRSEDEADYYCAAWDDSLNGYVFGTGTKLTVLGQP")
5.32
